# Assay Notes: Quantitative High-Throughput drug screen in 47 multiple myeloma cell lines against the NCATS MIPE library collection: VP6_DJ cell viability assay (AID 1919867); further: nearly all actives have a fitted effect of over 40% in size
# Test Context: ATP luminescence, 48 h; series mostly up to 45.8 µM
Results filed as inconclusive are left out. Activity calls are given as the source filed them. The call rests on the fitted dose curve; in most records, active means well fitted cell-killing curve with a large enough effect; inconclusive means small, poorly fitted or top-dose-only effect, or effect the other way; inactive means no such curve, though single readings can be large or run the other way.
Outcomes: T (active), F (inactive)

molecule="CN1[C@H]2CC(O)C[C@H]1[C@H]1O[C@H]12 (some centres not stated)" cat=T
molecule="Cc1c(N)nc([C@H](CC(N)=O)NC[C@@H](N)C(N)=O)nc1C(=O)N[C@H](C(=O)N[C@@H](C)[C@H](O)[C@@H](C)C(=O)N[C@@H](C(=O)NCCc1nc(-c2nc(C(=O)NCCC[S+](C)C)cs2)cs1)[C@@H](C)O)C(O[C@H]1O[C@H](CO)[C@H](O)[C@@H](O)[C@@H]1O[C@H]1O[C@H](CO)[C@@H](O)[C@H](OC(N)=O)[C@H]1O)c1cnc[nH]1 (some centres not stated)" cat=T
molecule=CC(=Cc1csc(C)n1)[C@@H]1C[C@H]2O[C@@H]2CCC[C@H](C)[C@@H](O)[C@@H](C)C(=O)C(C)(C)[C@@H](O)CC(=O)O1 cat=F
molecule=CCN(CC)C(=O)c1ccc(C2=CC3(CCNCC3)Oc3cccc(O)c32)cc1 cat=F
molecule=O=c1[nH]c2ccccc2n1C1CCN(Cc2ccc(-c3[nH]c4cc5ncnc5cc4nc3-c3ccccc3)cc2)CC1 cat=T
molecule=Cc1[nH]nc2ccc(-c3cncc(OC[C@@H](N)Cc4c[nH]c5ccccc45)c3)cc12 cat=T
molecule=O=c1cccc2n1CC1CNC[C@H]2C1 cat=T
